Value source: PubChem BioAssay (Tox21)

experiment: Nuclear factor erythroid 2-related factor 2/antioxidant responsive element (Nrf2/ARE) small molecule agonists: luciferase reporter gene qHTS assay in human keratinocytes (AID 1919969); details: KeratinoSens HaCaT ARE-luciferase, luminescence, 24 h; series mostly up to 92.4 µM; note: nearly all actives have a fitted effect of over 35% in size
Inconclusive results are not listed. Activity calls are given as the source filed them. Calls come from the whole dose curve.
Labels: active, inactive

| compound | answer-label |
| --- | --- |
| COC(=O)c1ccc([N+](=O)[O-])cc1 | inactive |
| CCCCCCCCCC(C)=O | inactive |
| CCCCC1CCC(=O)O1 (configuration not stated) | inactive |
| CNC1(C)C2CCC(C2)C1(C)C (configuration not stated) | inactive |
| CC(N)CN (configuration not stated) | inactive |
| CCCOC(C(=O)OC1CCN(C)CC1)(c1ccccc1)c1ccccc1 | active |
| N#CCC(=O)O | inactive |
| Cc1cc(OCCOCC[N+](C)(C)Cc2ccccc2)ccc1C(C)(C)CC(C)(C)C | inactive |
| COC(=O)c1ccccc1C(=O)c1ccc(OCCN2CCCCC2)cc1 | inactive |
| Cc1ccc(N=Nc2c(O)ccc3ccccc23)c(C)c1 | active |
| O=C(O)[C@@H](O)[C@H](O)[C@H](O)[C@@H](O)C(=O)O | inactive |
| CCCCCCCCS | inactive |
| CCC(C)c1ccccc1O (configuration not stated) | inactive |
| CC(C(=O)O)c1cccc(C(=O)c2ccccc2)c1 (configuration not stated) | inactive |
| CC[C@H](C)[C@@H](C(=O)O)n1sc2ccccc2c1=O | active |
| O=S(=O)(O)c1ccc(N=Nc2c(O)ccc3cc(S(=O)(=O)O)ccc23)cc1 | inactive |
| CCCCCCCCCCC | inactive |
| Fc1ccccc1-c1ccccc1 | inactive |
| C/C(=N\O)[C@@H](C)NCC(C)(C)CN[C@H](C)/C(C)=N/O | inactive |
| CO[Si](OC)(OC)c1ccccc1 | inactive |
| CC(C)C(=O)OC(=O)C(C)C | inactive |
| O=c1[nH]c(=O)c2ccccc2o1 | inactive |
| CCCc1ccc(O)cc1 | inactive |
| C/C=C/C(=O)O | inactive |
| O=C1Nc2ccccc2C1=O | inactive |
| CCCC1O[C@@H]2C[C@H]3[C@@H]4CCC5=CC(=O)C=C[C@]5(C)[C@H]4[C@@H](O)C[C@]3(C)[C@]2(C(=O)CO)O1 (some centres not stated) | inactive |
| Cc1ccc2oc(=O)ccc2c1 | inactive |
| CN1C(=O)CC(C)(c2ccccc2)C1=O (configuration not stated) | inactive |
| CC(C)(C)c1ccc(C=O)cc1 | inactive |
| CC1CC(=O)CC(C)(C)C1 (configuration not stated) | inactive |
| Cn1c(=O)c2[nH]c(Br)nc2n(C)c1=O | inactive |
| CC[N+](C)(C)c1cccc(O)c1 | inactive |
| C/C=C/C(=O)CCCC | inactive |
| FC(F)(F)c1cccc(Cl)c1 | inactive |
| CC(=O)N(CC(O)CO)c1c(I)c(C(=O)NCC(O)CO)c(I)c(C(=O)NCC(O)CO)c1I (configuration not stated) | inactive |
| O=CC1CC=CCC1 (configuration not stated) | inactive |
| Cc1cccc2cccnc12 | inactive |
| CC1(C)O[C@@H]2C[C@H]3[C@@H]4C[C@H](F)C5=CC(=O)C=C[C@]5(C)[C@@]4(F)[C@@H](O)C[C@]3(C)[C@]2(C(=O)CO)O1 | inactive |
| O=[N+]([O-])c1ccc(F)cc1F | inactive |
| CC(C)N=C=NC(C)C | inactive |
| O=Cc1ccc([N+](=O)[O-])cc1 | inactive |
| c1ccc(CCc2ccccc2)cc1 | inactive |
| O=C1CCN(c2ccccc2)N1 | inactive |
| Nc1c(Br)cc([N+](=O)[O-])cc1Br | inactive |
| CC(C)(C)S | inactive |
| CSc1ccc(C(=O)c2[nH]c(=O)[nH]c2C)cc1 | inactive |
| O=S(=O)(O)c1cc(O)c(O)c(S(=O)(=O)O)c1 | inactive |
| CC(C)(C)c1cc(Cc2cc(C(C)(C)C)c(O)c(C(C)(C)C)c2)cc(C(C)(C)C)c1O | inactive |
| CCc1ccc(C=O)cc1 | inactive |
| CC/C=C\CC1=C(C)CCC1=O | inactive |
| CC(=O)OCc1ccco1 | inactive |
| NC(=O)Nc1ccccc1 | inactive |
| CC(=O)OCCOCCOCCOC(C)=O | inactive |
| OCC1CC2CC1C1CCC(CO)C21 (configuration not stated) | inactive |
| O=[N+]([O-])c1ccccc1Nc1ccccc1 | inactive |
| C=C[C@H]1CN2CC[C@H]1C[C@H]2[C@H](O)c1ccnc2ccc(OC)cc12 | inactive |
| CCCCC(CC)C(=O)OCCOCCOCCOC(=O)C(CC)CCCC (configuration not stated) | active |
